Assay: Exposure during ipGTT in ob/ob mice
Format: in vivo, mouse
Conditions: sc injection
Where a SMILES comes first, the peptide text is derived from it. [ ]: non-standard residue; d: D form. The star is where a group is joined. ξ: configuration not given here. Ala(6-(2-MePh)pyridin-3-yl) = Cc1ccccc1-c1ccc(C[C@H](N)C(=O)O)cn1; Phe(4-(2-Et-4-HO-Ph)) = CCc1cc(O)ccc1-c1ccc(C[C@H](N)C(=O)O)cc1; ξαMePhe(2-F) = CC(N)(Cc1ccccc1F)C(=O)O; ξαMeP = CC1(C(=O)O)CCCN1; Moc = COC(=O)*
Measurement name: Exposure/dose during ipGTT in ob/ob mice (nM * h/nmol/kg)
Numbers only here, please. The scale is nM * h/nmol/kg.

Return the recorded Exposure/dose during ipGTT in ob/ob mice value; entry: CCc1cc(O)ccc1-c1ccc(C[C@H](NC(=O)[C@H](CC(=O)O)NC(=O)[C@H](CO)NC(=O)[C@@H](NC(=O)C(C)(Cc2ccccc2F)NC(=O)[C@@H](NC(=O)CNC(=O)[C@H](CCC(=O)O)NC(=O)C2(C)CCCN2C(=O)[C@H](Cc2c[nH]cn2)NC(=O)OC)[C@@H](C)O)[C@@H](C)O)C(=O)N[C@@H](Cc2ccc(-c3ccccc3C)nc2)C(N)=O)cc1 (stereo partly shown) [SEQ ID NO: 158] (Moc-H[ξαMeP]EGT[ξαMePhe(2-F)]TSD[Phe(4-(2-Et-4-HO-Ph))][Ala(6-(2-MePh)pyridin-3-yl)]-NH2)
11

---

Assay: Dog pharmacokinetic study
Assay type: in vivo
Conditions: dog, plasma, 67 ug/kg; male beagle dogs, intravenous 67 μg/kg; read-out: t½ (converted)
Where a SMILES comes first, the peptide text is derived from it. [ ]: non-standard residue; d: D form. ξ: configuration not given here. Ala(6-(2-MePh)pyridin-3-yl) = Cc1ccccc1-c1ccc(C[C@H](N)C(=O)O)cn1; Bip(2'-Et-4'-OMe) = CCc1cc(OC)ccc1-c1ccc(C[C@H](N)C(=O)O)cc1; ξαMePhe(2-F) = CC(N)(Cc1ccccc1F)C(=O)O; Thr(3ξ) = CC(O)[C@H](N)C(=O)O; Aib = CC(C)(N)C(=O)O
Measurement name: half-life (h)
Numbers only here, please. The scale is h.

Return the recorded half-life value; entry: CCc1cc(OC)ccc1-c1ccc(C[C@H](NC(=O)[C@H](CC(=O)O)NC(=O)[C@H](CO)NC(=O)[C@@H](NC(=O)C(C)(Cc2ccccc2F)NC(=O)[C@@H](NC(=O)CNC(=O)[C@H](CCC(=O)O)NC(=O)C(C)(C)NC(=O)[C@@H](N)Cc2c[nH]cn2)C(C)O)C(C)O)C(=O)N[C@@H](Cc2ccc(-c3ccccc3C)nc2)C(N)=O)cc1 (stereo partly shown) [SEQ ID NO: 9] (H-H[Aib]EG[Thr(3ξ)][ξαMePhe(2-F)][Thr(3ξ)]SD[Bip(2'-Et-4'-OMe)][Ala(6-(2-MePh)pyridin-3-yl)]-NH2)
7.1
